# Study System: human JAK3 (Homo sapiens)
# Construct: catalytic domain (amino acids 781-1124; catalog number PV3855)
# Sequence (P52333 781-1124): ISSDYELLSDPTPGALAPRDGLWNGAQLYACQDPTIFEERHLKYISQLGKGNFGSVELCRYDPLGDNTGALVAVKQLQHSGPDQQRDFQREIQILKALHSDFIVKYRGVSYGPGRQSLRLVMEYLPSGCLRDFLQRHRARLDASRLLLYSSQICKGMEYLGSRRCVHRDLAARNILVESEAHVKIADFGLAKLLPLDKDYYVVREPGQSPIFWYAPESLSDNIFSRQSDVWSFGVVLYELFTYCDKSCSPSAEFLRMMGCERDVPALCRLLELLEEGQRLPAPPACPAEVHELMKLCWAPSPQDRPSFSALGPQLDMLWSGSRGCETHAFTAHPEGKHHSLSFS
# Method: JAK3 inhibition assay
# Condition Details: recombinant human JAK3 catalytic domain; polyGT substrate
Overview of reported IC50 across a group of molecules:

{"Molecule": "Cc1cc(-c2cnn(C)c2)ccc1N(C)c1cc2c(cn1)ncn2C", "Study System": "human JAK3 (Homo sapiens)", "IC50": "> 1000 nM"}
{"Molecule": "CCc1cc(-c2ccc(C#N)nc2)ccc1N(C)c1cc2c(cn1)ncn2C", "Study System": "human JAK3 (Homo sapiens)", "IC50": "101 to 500 nM"}
{"Molecule": "CCc1cc(-c2cncc(C#N)c2)ccc1N(C)c1cc2c(cn1)ncn2C", "Study System": "human JAK3 (Homo sapiens)", "IC50": "> 1000 nM"}
{"Molecule": "CCc1cc(C2CN(C(=O)C3CC(F)(F)C3)C2)ncc1N(C)c1cc2c(cn1)ncn2C", "Study System": "human JAK3 (Homo sapiens)", "IC50": "> 1000 nM"}

* * *

# Tested on: BA/F3 cell line
# Method: BA/F3 viability assay
# Condition Details: Mus musculus, BaF3, 48 h, read-out: BA/F3 IC50
Overview of reported IC50 across a group of compounds:

{"Compound": "CN(c1cc2c(cn1)ncn2C)c1ccc(CN(C)S(C)(=O)=O)cc1OC(F)F [Compound 430]", "Study System": "BA/F3 cell line", "IC50": "1 to 5 µM"}
{"Compound": "CCc1cc(CNS(=O)(=O)C(C)C)ccc1N(C)c1cc2c(cn1)ncn2C [Compound 245]", "Study System": "BA/F3 cell line", "IC50": "1 to 5 µM"}
{"Compound": "CCc1cc(CN(CC#N)S(C)(=O)=O)ncc1N(C)c1cc2c(cn1)ncn2C [Compound 344]", "Study System": "BA/F3 cell line", "IC50": "> 5 µM"}
{"Compound": "CCc1cc(N2CC(F)(F)C2)ncc1N(C)c1cc2c(cn1)ncn2C [Compound 413]", "Study System": "BA/F3 cell line", "IC50": "1 to 5 µM"}
{"Compound": "CCc1cc(CNS(=O)(=O)CC(F)(F)F)ccc1N(C)c1cc2c(cn1)ncn2C [Compound 244]", "Study System": "BA/F3 cell line", "IC50": "1 to 5 µM"}
{"Compound": "CCc1cc(-c2cncnc2)ccc1N(C)c1cc2c(cn1)ncn2C [Compound 95]", "Study System": "BA/F3 cell line", "IC50": "> 5 µM"}
{"Compound": "CCc1cc(-c2cncc(C(F)(F)F)c2)ccc1N(C)c1cc2c(cn1)ncn2C [Compound 194]", "Study System": "BA/F3 cell line", "IC50": "1 to 5 µM"}
{"Compound": "CCc1cc(CNS(=O)(=O)C(F)F)c(F)cc1N(C)c1cc2c(cn1)ncn2C [Compound 327]", "Study System": "BA/F3 cell line", "IC50": "1 to 5 µM"}

* * *

# Test system: pSTAT1(2)-luciferase reporter in HeLa cells triggered with human OSM
# Method: JAK-STAT signalling assay
# Format: cell-based
# Condition Details: Homo sapiens, HeLa, HeLa cells, pSTAT1(2)-luciferase reporter, human OSM 33 ng/mL; read-out: JAK-STAT IC50

{"Compound": "Cc1cc(O)ccc1N(C)c1cc2c(cn1)ncn2C", "IC50": "> 1 µM"}
{"Compound": "CCc1cc(CNS(C)(=O)=O)ccc1N(C)c1cc2c(cn1)ncn2C", "IC50": "0.001 to 0.5 µM"}
{"Compound": "CCc1cc(-c2cnn(Cc3ccc(C)cc3)c2)ccc1N(C)c1cc2c(cn1)ncn2C", "IC50": "0.001 to 0.5 µM"}
{"Compound": "CCc1cc(CNC(=O)C(F)F)ccc1N(C)c1cc2c(cn1)ncn2C", "IC50": "0.001 to 0.5 µM"}
{"Compound": "CCc1cc(-c2cncnc2)ccc1N(C)c1cc2c(cn1)ncn2C", "IC50": "0.501 to 1 µM"}
{"Compound": "CCc1cc(-c2cncc(C(F)(F)F)c2)ccc1N(C)c1cc2c(cn1)ncn2C", "IC50": "> 1 µM"}
{"Compound": "CCc1cc(C2=CCN(C(=O)C(C)NC(=O)OC(C)(C)C)CC2)ccc1N(C)c1cc2c(cn1)ncn2C (stereo not drawn)", "IC50": "0.001 to 0.5 µM"}
{"Compound": "CCc1cc(C(=O)OC)ccc1N(C)c1cc2c(cn1)ncn2C", "IC50": "> 1 µM"}
{"Compound": "COC(=O)c1ccc(N(C)c2cc3c(cn2)ncn3C)c(C)c1", "IC50": "> 1 µM"}
{"Compound": "CCc1cc(C(=O)NCc2ccccc2)ccc1N(C)c1cc2c(cn1)ncn2C", "IC50": "> 1 µM"}
{"Compound": "CCc1cc(C2=CCN(C(=O)N3CCC3)CC2)ccc1N(C)c1cc2c(cn1)ncn2C", "IC50": "0.001 to 0.5 µM"}
{"Compound": "CCc1cc(CN(C)S(C)(=O)=O)c(F)cc1N(C)c1cc2c(cn1)ncn2C", "IC50": "0.501 to 1 µM"}
{"Compound": "CCc1cc(-c2cncc(C#N)c2)ccc1N(C)c1cc2c(cn1)ncn2C", "IC50": "> 1 µM"}
{"Compound": "CCc1cc(C2=CCN(C(=O)COC)CC2)ccc1N(C)c1cc2c(cn1)ncn2C", "IC50": "0.001 to 0.5 µM"}
{"Compound": "CCc1cc(C2=CCOCC2)ccc1N(C)c1cc2c(cn1)ncn2C", "IC50": "0.001 to 0.5 µM"}
{"Compound": "CCc1cc(C2=CCN(C(=O)C(C)OC)CC2)ccc1N(C)c1cc2c(cn1)ncn2C (stereo not drawn)", "IC50": "0.001 to 0.5 µM"}
{"Compound": "CCc1cc(CNS(C)(=O)=O)cc(F)c1N(C)c1cc2c(cn1)ncn2C", "IC50": "0.001 to 0.5 µM"}
{"Compound": "CCc1cc(CNS(=O)(=O)C(F)F)c(F)cc1N(C)c1cc2c(cn1)ncn2C", "IC50": "0.001 to 0.5 µM"}

* * *

# Study System: human TYK2 (Homo sapiens, UniProt P29597)
# Construct: catalytic domain (amino acids 871-1187; catalog number 08-147)
# Sequence (P29597 871-1187): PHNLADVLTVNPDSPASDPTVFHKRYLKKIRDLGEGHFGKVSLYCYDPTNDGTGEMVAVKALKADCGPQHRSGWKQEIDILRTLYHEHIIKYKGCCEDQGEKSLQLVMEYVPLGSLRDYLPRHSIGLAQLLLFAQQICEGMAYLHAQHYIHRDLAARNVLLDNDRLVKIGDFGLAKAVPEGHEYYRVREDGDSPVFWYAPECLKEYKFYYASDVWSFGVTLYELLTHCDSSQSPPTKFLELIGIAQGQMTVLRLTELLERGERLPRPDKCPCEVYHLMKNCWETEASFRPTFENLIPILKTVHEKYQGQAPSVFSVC
# Method: TYK2 inhibition assay
# Condition Details: recombinant human TYK2 catalytic domain, polyGT substrate
Overview of reported IC50 across a group of compounds:
Readout Kind: IC50

{"Compound": "CN(c1cc2c(cn1)ncn2C)c1ccc(C2CN(C(=O)N3CCCCC3)C2)cc1OC(F)F", "Readout Kind": "IC50", "Measurement": "> 1000 nM"}
{"Compound": "CCc1cc(CNS(=O)(=O)N2CCOCC2)ccc1N(C)c1cc2c(cn1)ncn2C", "Readout Kind": "IC50", "Measurement": "101 to 500 nM"}
{"Compound": "CCc1cc(F)ccc1N(C)c1cc2c(cn1)ncn2C", "Readout Kind": "IC50", "Measurement": "101 to 500 nM"}
{"Compound": "CCc1cc(N2CCC(C#N)C2)ncc1N(C)c1cc2c(cn1)ncn2C (stereo not shown)", "Readout Kind": "IC50", "Measurement": "0.01 to 100 nM"}
{"Compound": "Cc1cc(C#N)ccc1N(C)c1cc2c(cn1)ncn2C", "Readout Kind": "IC50", "Measurement": "501 to 1000 nM"}
{"Compound": "CCc1cc(CNS(=O)(=O)N2CCCCC2)ccc1N(C)c1cc2c(cn1)ncn2C", "Readout Kind": "IC50", "Measurement": "101 to 500 nM"}
{"Compound": "CCc1ccccc1N(Cc1ccccn1)c1cc2c(cn1)ncn2C", "Readout Kind": "IC50", "Measurement": "> 1000 nM"}
{"Compound": "CCN(c1ccc2c(cnn2C)c1)c1cc2c(cn1)ncn2C", "Readout Kind": "IC50", "Measurement": "501 to 1000 nM"}
{"Compound": "CCc1cc(C2=CCN(C(=O)C(C)O)CC2)ccc1N(C)c1cc2c(cn1)ncn2C (stereo not shown)", "Readout Kind": "IC50", "Measurement": "0.01 to 100 nM"}
{"Compound": "CCN(c1cc2c(cn1)ncn2C)c1ccc(C#N)cc1F", "Readout Kind": "IC50", "Measurement": "> 1000 nM"}
{"Compound": "CCc1cc(C2CCOCC2)ccc1N(C)c1cc2c(cn1)ncn2C", "Readout Kind": "IC50", "Measurement": "0.01 to 100 nM"}
{"Compound": "CCc1cc(C2CCN(S(C)(=O)=O)CC2)ccc1N(C)c1cc2c(cn1)ncn2C", "Readout Kind": "IC50", "Measurement": "0.01 to 100 nM"}
{"Compound": "CCc1cc(CNC(=O)CC#N)ccc1N(C)c1cc2c(cn1)ncn2C", "Readout Kind": "IC50", "Measurement": "101 to 500 nM"}
{"Compound": "CCc1cc(CN2CC(C#N)C2)ccc1N(C)c1cc2c(cn1)ncn2C", "Readout Kind": "IC50", "Measurement": "501 to 1000 nM"}
{"Compound": "CCc1cc(-c2cncc(F)c2)ccc1N(C)c1cc2c(cn1)ncn2C", "Readout Kind": "IC50", "Measurement": "101 to 500 nM"}
{"Compound": "CCc1cc(CN2CCC(S(C)(=O)=O)C2)ccc1N(C)c1cc2c(cn1)ncn2C (stereo not shown)", "Readout Kind": "IC50", "Measurement": "101 to 500 nM"}
{"Compound": "CCc1cc(O)ccc1N(C)c1cc2c(cn1)ncn2C", "Readout Kind": "IC50", "Measurement": "0.01 to 100 nM"}
{"Compound": "CCc1cc(-c2cccnc2)ccc1N(C)c1cc2c(cn1)ncn2C", "Readout Kind": "IC50", "Measurement": "0.01 to 100 nM"}
{"Compound": "CCc1cc(-c2ccc(CN)s2)ncc1N(C)c1cc2c(cn1)ncn2C", "Readout Kind": "IC50", "Measurement": "> 1000 nM"}
